Ref: patent US20120115893A1

Biological target: vanilloid receptor 1 (VR1/TRPV1 receptor) (Homo sapiens, UniProt Q8NER1)
Construct: expressed in transfected cells; host or cells: CHO K1 cells (ECACC), stably transfected
Sequence (Q8NER1 whole entry): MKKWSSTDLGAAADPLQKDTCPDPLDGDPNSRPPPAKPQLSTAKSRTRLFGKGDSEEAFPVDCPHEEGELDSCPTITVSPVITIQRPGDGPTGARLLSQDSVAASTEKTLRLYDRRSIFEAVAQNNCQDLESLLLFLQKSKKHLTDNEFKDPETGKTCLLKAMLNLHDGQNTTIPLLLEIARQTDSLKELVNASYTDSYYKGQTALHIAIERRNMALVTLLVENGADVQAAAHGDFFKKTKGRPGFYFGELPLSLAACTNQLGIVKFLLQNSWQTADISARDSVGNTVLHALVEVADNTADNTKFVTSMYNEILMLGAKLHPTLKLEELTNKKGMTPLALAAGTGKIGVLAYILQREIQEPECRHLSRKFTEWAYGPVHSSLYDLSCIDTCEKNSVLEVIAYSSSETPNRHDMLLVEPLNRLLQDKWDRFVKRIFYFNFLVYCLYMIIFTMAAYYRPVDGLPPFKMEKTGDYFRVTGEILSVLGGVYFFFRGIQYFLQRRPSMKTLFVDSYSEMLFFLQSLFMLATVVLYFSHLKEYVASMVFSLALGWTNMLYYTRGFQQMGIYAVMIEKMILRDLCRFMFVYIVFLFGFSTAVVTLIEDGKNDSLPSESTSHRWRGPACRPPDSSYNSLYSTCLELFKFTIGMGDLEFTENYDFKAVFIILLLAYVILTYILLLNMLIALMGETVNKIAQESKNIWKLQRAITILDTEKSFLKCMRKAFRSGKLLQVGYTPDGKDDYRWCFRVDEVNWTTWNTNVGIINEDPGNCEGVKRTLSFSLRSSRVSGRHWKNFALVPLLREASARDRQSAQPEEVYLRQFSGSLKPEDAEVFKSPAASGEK
Assay: FLIPR Ca2+ influx assay, capsaicin stimulus, CHO K1 cells transfected with human VR1 gene
Type: cell-based, human being
Conditions: functional, NE=no effect, read-out: (f) Ki (human being) [nM] Cap
valueType: Ki (nM)
Number only, in nM; omit the unit.

Observe how each entry below is paired with its result.
{"columns": ["molecule", "measureUnit", "Ki"],
 "data": [
  ["CC(C(=O)NCc1cc(C(F)(F)F)nn1-c1ccc(F)c(Cl)c1)C1CCCc2ccc(O)cc21 (centres unmarked)", "nM", 29.5],
  ["O=C(NCc1cc(C(F)(F)F)nn1-c1cccc(Cl)c1)NC1CCCc2ccc(O)cc21 (centres unmarked)", "nM", 16.1],
  ["CC(C(=O)NCc1cc(C(F)(F)F)nn1-c1cccc(Cl)c1)C1CCCc2ccc(O)cc21 (centres unmarked)", "nM", 49.2],
  ["CC(C)(C)c1cc(CNC(=O)NC2CCCc3ccc(O)cc32)n(-c2cccc(Cl)c2)n1 (centres unmarked)", "nM", 7.7]
]}

Would you kindly look at the next entry?
The value of Ki measured for the molecule CC(C)(C)c1cc(CNC(=O)NC2CCCc3cnccc32)n(-c2cccc(Cl)c2)n1 (centres unmarked) turned out to be 73.6

----------
Molecular target: vanilloid receptor 1 (VR1/TRPV1 receptor) (Mus musculus, UniProt Q704Y3)
Construct: expressed in transfected cells; host or cells: CHO K1 cells stably transfected (inferred from method II)
Sequence (Q704Y3 whole entry): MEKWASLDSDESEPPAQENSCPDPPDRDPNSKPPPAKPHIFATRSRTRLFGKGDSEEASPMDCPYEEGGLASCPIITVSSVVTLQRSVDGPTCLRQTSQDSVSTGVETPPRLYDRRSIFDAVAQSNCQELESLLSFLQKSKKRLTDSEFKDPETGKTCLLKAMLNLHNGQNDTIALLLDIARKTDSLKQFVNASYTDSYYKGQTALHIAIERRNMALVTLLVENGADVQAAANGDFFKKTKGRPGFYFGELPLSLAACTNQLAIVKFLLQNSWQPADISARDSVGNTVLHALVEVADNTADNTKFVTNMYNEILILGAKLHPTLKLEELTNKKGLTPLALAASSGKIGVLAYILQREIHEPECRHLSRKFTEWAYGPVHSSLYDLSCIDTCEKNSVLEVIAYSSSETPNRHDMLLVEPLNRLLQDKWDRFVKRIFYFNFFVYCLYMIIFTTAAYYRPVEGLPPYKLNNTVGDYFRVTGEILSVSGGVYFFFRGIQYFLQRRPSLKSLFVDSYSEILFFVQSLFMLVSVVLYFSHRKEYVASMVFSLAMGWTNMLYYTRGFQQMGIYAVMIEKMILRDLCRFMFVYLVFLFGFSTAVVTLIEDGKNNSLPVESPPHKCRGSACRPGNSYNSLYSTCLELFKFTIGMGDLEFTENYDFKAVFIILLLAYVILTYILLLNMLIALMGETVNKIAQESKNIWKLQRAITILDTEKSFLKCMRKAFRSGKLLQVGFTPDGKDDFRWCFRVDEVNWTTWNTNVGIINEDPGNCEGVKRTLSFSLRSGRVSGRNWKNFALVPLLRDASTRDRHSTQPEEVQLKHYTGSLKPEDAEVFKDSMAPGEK
Assay: FLIPR Ca2+ influx assay, capsaicin stimulus, mouse VR1
Format: cell-based
Details: functional, read-out: (f) Ki (mouse) [nM] Cap
valueType: Ki (nM)
Number only, in nM; omit the unit.

The value of Ki measured for the compound CC(C)(C)c1cc(CNC(=O)NC2CCCc3ccc(O)cc32)n(-c2cccc(Cl)c2)n1 (stereo not shown) turned out to be 132

----------
Target: vanilloid receptor 1 (VR1/TRPV1 receptor) (Homo sapiens, UniProt Q8NER1)
Construct: expressed in transfected cells; host or cells: CHO K1 cells (ECACC), stably transfected
Assay: Functional VR1 assay, heat stimulus 45° C.
Assay type: cell-based, human being
Details: human VR1, heat stimulus 45° C.; read-out: IC50 (human being) [nM], 45° C.
valueType: IC50 (nM)
Number only, in nM; omit the unit.

The value of IC50 measured for the compound O=C(NCc1cc(C(F)(F)F)nn1-c1cccc(Cl)c1)NC1CCCc2ccc(O)cc21 (stereo not shown) [Example 13] turned out to be 1860
